target: HLA-B*58:01; test: IEDB peptide-MHC binding, purified MHC/direct/fluorescence; filed as Kd, often an IC50 or EC50 that approximates it; bounds were set here for any values at or beyond the usual limits of such assays; details: source organism: Yellow fever virus
pKd: −log10 of the molar value.
assay_metric: pKd

Quote pKd with test system HLA-B*58:01 for VNRWLFRHL
≤ 4.70

###

molecular target: HLA-A*30:01; test: IEDB peptide-MHC binding, purified MHC/competitive/radioactivity; filed as Kd, often an IC50 or EC50 that approximates it; bounds were set here for any values at or beyond the usual limits of such assays; conditions: source organism: Dengue virus 3 Martinique/1243/1999
assay_metric: pKd
The scale used: pKd is minus the common logarithm of the concentration in molar units.

Quick one: give measured pKd for RQWFFDLPLP
4.97

Quick one: give measured pKd for GRLITANPVV
5.84
